All values here come from patent US11312719B2.

Target: human A2a adenosine receptor (Homo sapiens (Human))
Sequence (P29274 whole entry): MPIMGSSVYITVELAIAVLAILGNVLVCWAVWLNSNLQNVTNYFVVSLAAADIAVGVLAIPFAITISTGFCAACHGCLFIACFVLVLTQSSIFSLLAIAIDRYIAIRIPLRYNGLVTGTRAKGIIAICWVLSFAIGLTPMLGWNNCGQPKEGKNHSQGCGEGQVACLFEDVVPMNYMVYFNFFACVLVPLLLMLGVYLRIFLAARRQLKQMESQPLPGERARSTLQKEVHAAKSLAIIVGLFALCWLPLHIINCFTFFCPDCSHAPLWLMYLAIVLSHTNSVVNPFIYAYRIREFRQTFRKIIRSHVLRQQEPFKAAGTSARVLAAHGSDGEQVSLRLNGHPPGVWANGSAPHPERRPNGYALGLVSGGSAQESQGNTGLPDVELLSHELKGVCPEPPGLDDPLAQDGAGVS
pIC50: −log10 of the molar value.
recorded endpoint: pIC50

Below, each entry is followed by its recorded pIC50 result.
compound	data value
COc1cc2nc(N)n3nc([C@@H]4CCCN(c5cn(CC(C)(C)O)nc5C)C4)nc3c2cc1F	9.30
COc1cc2nc(N)n3nc([C@@H]4CCCN(c5cnn(CS(C)(=O)=O)c5)C4)nc3c2cc1F	7.93

1 = COc1cc2nc(N)n3nc([C@@H]4C[C@H](C)CN(c5cnn(CC(C)(C)O)c5)C4)nc3c2cc1F (single isomer, unassigned)
2 = Cn1cc(N2CCCC(c3nc4c5c(F)c(F)ccc5nc(N)n4n3)C2)cn1 (single isomer, unassigned)
3 = COc1cc(F)cc2c1nc(N)n1nc([C@@H]3CCCN(c4cn(C(C)C(C)(C)O)nc4C)C3)nc21 (single isomer, unassigned)
4 = COc1cc(F)cc2c1nc(N)n1nc([C@H]3C[C@H](F)CN(c4cnn(CC(C)(C)O)c4)C3)nc21 (single isomer, unassigned)
5 = COc1cc2nc(N)n3nc([C@@H]4CCCN(c5cnn(CC(F)(F)F)c5)C4)nc3c2cc1F
Put these in order: smallest pIC50 first, largest last. Response format: the labels, sorted as the prompt asks.
2, 4, 5, 1, 3

I = COc1cc2nc(N)n3nc([C@@H]4CCCN(c5cn(C6CCOCC6)nc5C)C4)nc3c2cc1F
II = COc1cc(F)cc2c1nc(N)n1nc([C@H]3CC[C@H](C)N(c4cn(CC(C)(C)O)nc4C)C3)nc21 (single isomer, unassigned)
III = COc1cc2nc(N)n3nc(C4CCCCN(c5cnn(CC(C)(C)O)c5)C4)nc3c2cc1F (single isomer, unassigned) [Example 60]
Put these in order: smallest pIC50 first, largest last. Response format: the labels, sorted as the prompt asks.
II, III, I

====

Biological target: human A2B receptors (Homo sapiens (Human))
Sequence (P29275 whole entry): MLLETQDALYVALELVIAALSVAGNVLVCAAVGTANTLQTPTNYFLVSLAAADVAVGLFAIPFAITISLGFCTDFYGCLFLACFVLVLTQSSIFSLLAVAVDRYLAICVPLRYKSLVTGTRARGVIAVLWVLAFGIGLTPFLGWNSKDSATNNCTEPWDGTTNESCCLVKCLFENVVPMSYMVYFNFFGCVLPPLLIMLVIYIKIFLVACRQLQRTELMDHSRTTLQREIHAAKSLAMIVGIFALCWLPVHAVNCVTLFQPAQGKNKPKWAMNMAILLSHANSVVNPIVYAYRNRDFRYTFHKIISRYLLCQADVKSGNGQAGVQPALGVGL
Test: A2B antagonism in cAMP cell-based assay (LANCE cAMP, HEK293)
Settings: HEK293 cells expressing human A2B receptor
recorded endpoint: IC50 (nM)

Below, each entry is followed by its recorded IC50 result.
compound	result units	IC50
COc1cc(F)cc2c1nc(N)n1nc([C@@H]3CCCN(c4cn(C(C)C(C)O)nc4C)C3)nc21 (single isomer, unassigned) [Example 189]	nM	53.4
Cc1nn(CC(C)(C)O)cc1N1CC(C)CC(c2nc3c4cc(F)cc(F)c4nc(N)n3n2)C1 (single isomer, unassigned) [Example 168]	nM	4720

a = COc1cc2nc(N)n3nc(C4CC(C)CN(c5cnn(C(C)(C)CO)c5)C4)nc3c2cc1F (single isomer, unassigned) [Example 171]
b = COc1cc2nc(N)n3nc(C4CC(C)CN(c5cn(C(C)(C)CO)nc5C)C4)nc3c2cc1F (single isomer, unassigned) [Example 169]
Of a and b , whose reported IC50 is the larger number? Answer by quoting the chosen item's label.
b
(b: 3380 nM, a: 11.3 nM)

1 = COc1cc2nc(N)n3nc(C4CCC(C)N(c5cnn(C(C)(C)C(C)O)c5)C4)nc3c2cc1F (single isomer, unassigned) [Example 265]
2 = CC(O)C(C)n1cc(N2CCC[C@@H](c3nc4c5cc(F)cc(F)c5nc(N)n4n3)C2)cn1 (single isomer, unassigned) [Example 197]
3 = COc1cc(F)cc2c1nc(N)n1nc([C@@H]3CCCN(c4cnn(C(C)C(C)O)c4)C3)nc21 (single isomer, unassigned) [Example 201]
4 = COc1cc2nc(N)n3nc(C4CC(C)CN(c5cn(C(C)(C)CO)nc5C)C4)nc3c2cc1F (racemic) [Example 155]
5 = COc1cc2nc(N)n3nc(C4CCC(C)N(c5cnn(CC(C)(O)CO)c5)C4)nc3c2cc1F (single isomer, unassigned) [Example 252]
Please give the order of these compounds when sorted by IC50, largest value leading. Response format: the labels, sorted as the prompt asks.
5, 4, 2, 3, 1
(5: 8160 nM, 4: 1440 nM, 2: 93 nM, 3: 38.4 nM, 1: 4.5 nM)

1 = COc1cc(F)cc2c1nc(N)n1nc([C@@H]3CCCN(c4cnn(C(C)C(C)O)c4)C3)nc21 (single isomer, unassigned) [Example 185]
2 = COc1cc(F)cc2c1nc(N)n1nc(C3CC(C)CN(c4cn(C(C)(C)CO)nc4C)C3)nc21 (single isomer, unassigned) [Example 176]
3 = CC1CC(c2nc3c4cc(F)cc(F)c4nc(N)n3n2)CN(c2cnn(C(C)(C)CO)c2)C1 (single isomer, unassigned) [Example 180]
Put these in order: smallest IC50 first, largest last. Response format: the labels, sorted as the prompt asks.
2, 1, 3
